Test System: Bcl-2 (GST-Bcl-2) (Homo sapiens)
Sequence (P10415 whole entry, species assumed): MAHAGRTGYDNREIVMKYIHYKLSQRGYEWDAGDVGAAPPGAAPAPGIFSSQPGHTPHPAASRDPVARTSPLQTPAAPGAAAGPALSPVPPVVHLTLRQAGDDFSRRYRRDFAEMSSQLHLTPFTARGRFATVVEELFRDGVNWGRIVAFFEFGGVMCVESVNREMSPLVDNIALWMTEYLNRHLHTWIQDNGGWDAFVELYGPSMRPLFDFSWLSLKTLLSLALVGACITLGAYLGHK
Measurement Description: TR-FRET binding assay, competition with F-Bak for the Bcl-2 binding site
Test Context: Bcl-2, for comparison (selectivity)
Experimental: For each assay plate, a probe/antibody and protein/antibody/probe mixture were included as a negative and a positive control, respectively. Fluorescence was measured on the Envision (Perkin Elmer) using a 340/35 nm excitation filter and 520/525 (F-Bak) and 495/510 nm (Tb-labeled anti-his antibody) emission filters. […]
Endpoint Label: pKi
Quick note: pKi values are minus log10 of concentrations in mol/L.

# Molecule, Test System, Numeric Result
records = [
    ("CN1CCN(c2ccc(OCCCc3sc(N4CCc5cccc(C(=O)Nc6nc7ccccc7s6)c5C4)nc3C(=O)O)c(F)c2)CC1", "Bcl-2 (GST-Bcl-2) (Homo sapiens)", 6.81),
    ("O=C(Nc1nc2ccccc2s1)c1cccc2c1CN(c1nc(C(=O)O)c(CCCOc3ccc(OCCN4CCOCC4)cc3)s1)CC2", "Bcl-2 (GST-Bcl-2) (Homo sapiens)", 6.52),
]

Ask: Field request: pKi | item: O=C(Nc1nc2ccccc2s1)c1cccc2c1CN(c1nc(C(=O)O)c(CCCOc3ccc(-c4ncccn4)cc3)s1)CC2
Result: 6.96

Ask: # lookup: pKi of CN(C)CC#Cc1ccc(OCCCc2sc(N3CCc4cccc(C(=O)Nc5nc6ccccc6s5)c4C3)nc2C(=O)O)cc1
Result: 7.22

Ask: Can you look up the measured pKi of CN1CCN(CCCNc2ncnc3c2cnn3-c2ccc(OCCCc3sc(N4CCc5cccc(C(=O)Nc6nc7ccccc7s6)c5C4)nc3C(=O)O)cc2)CC1 for me?
Result: 6.85

Ask: If you can, please state the reported pKi value of CN1CCN(c2ccc(OCCCc3sc(N4CCc5cccc(C(=O)Nc6nc7ccccc7s6)c5C4)nc3C(=O)O)cc2)CC1 .
Result: 6.92

Ask: // pKi lookup, key: O=C(Nc1nc2ccccc2s1)c1cccc2c1CN(c1nc(C(=O)O)c(CCNS(=O)(=O)c3cccc([N+](=O)[O-])c3)s1)CC2
Result: 6.30

* * *

Test System: Bcl-xL (GST-Bcl-xL) (Homo sapiens, UniProt Q07817)
Sequence (Q07817 whole entry, species assumed): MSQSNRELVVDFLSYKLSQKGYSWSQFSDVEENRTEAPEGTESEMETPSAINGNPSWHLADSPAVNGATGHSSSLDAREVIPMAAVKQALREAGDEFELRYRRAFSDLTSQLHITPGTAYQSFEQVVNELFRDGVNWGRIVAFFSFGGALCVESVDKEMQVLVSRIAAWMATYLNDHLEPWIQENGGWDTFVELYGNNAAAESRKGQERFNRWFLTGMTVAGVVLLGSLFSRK
Endpoint Label: IC50 (nM)
Write it as a number; the unit nM goes unstated.

Check out these entries, answers already filled in.
# Molecule, IC50, nM
rows = [
    ("O=C(Nc1nc2ccccc2s1)c1cccc2c1CN(c1nc(C(=O)O)c(CCCOc3ccc(OCCN4CCCC4)cc3)s1)CC2", 0.14),
    ("Cc1ccccc1-c1ccc(N2CCc3cccc(C(=O)Nc4nc5ccccc5s4)c3C2)nc1C(=O)O", 77.6),
]

Ask: What IC50 appears in the records for this compound with Bcl-xL (GST-Bcl-xL) (Homo sapiens, UniProt Q07817)? O=C(Nc1nc2ccccc2s1)c1cccc2c1CN(c1nc(C(=O)O)c(CCCO)s1)CC2
Result: 5

Ask: # value lookup — system Bcl-xL (GST-Bcl-xL) (Homo sapiens, UniProt Q07817), readout IC50, item N#Cc1c(-c2ccc(OCCCc3sc(N4CCc5cccc(C(=O)Nc6nc7ccccc7s6)c5C4)nc3C(=O)O)cc2)n[nH]c1N
Result: 0.3

* * *

Test System: Bcl-xL (GST-Bcl-xL) (Homo sapiens)
Would you mind sorting the entries by IC50 according to these classes? Low = under 1 nM, Medium = from 1 nM up to 10 nM, High = 10 nM and over

# Molecule, Class Assignment
data = [
    ("CN(C)CC#Cc1ccc(OCCCc2sc(N3CCc4cccc(C(=O)Nc5nc6ccccc6s5)c4C3)nc2C(=O)O)c(Cl)c1", "Low"),
    ("O=C(Nc1nc2ccccc2s1)c1cccc2c1CN(c1nc(C(=O)O)c(CCCOc3ccc(-n4cccn4)cc3)s1)CC2", "Low"),
    ("CN1CCN(c2cc(F)c(OCCCc3sc(N4CCc5cccc(C(=O)Nc6nc7ccccc7s6)c5C4)nc3C(=O)O)cc2F)CC1", "Low"),
    ("CN(C)c1cccc(OCCCc2sc(N3CCc4cccc(C(=O)Nc5nc6ccccc6s5)c4C3)nc2C(=O)O)c1", "Medium"),
    ("CN(C)CCOc1cccc(OCCCc2ccc(N3CCc4cccc(C(=O)Nc5nc6ccccc6s5)c4C3)nc2C(=O)O)c1", "Low"),
    ("CN1CCC(Nc2ccc(OCCCc3ccc(N4CCc5cccc(C(=O)Nc6nc7ccccc7s6)c5C4)nc3C(=O)O)cc2)CC1", "Medium"),
]

Ask: Could you tell me which band O=C(O)c1csc(N2CCc3cccc(C(=O)Nc4nc5ccccc5s4)c3C2)n1 belongs to?
Result: High

Ask: Lab log: CN(C)CC#Cc1ccc(OCCCc2ccc(N3CCc4cccc(C(=O)Nc5nc6ccccc6s5)c4C3)nc2C(=O)O)cc1 — assign IC50 category
Result: Medium

Ask: Bin this entry: O=C(Nc1nc2ccccc2s1)c1cccc2c1CN(c1ccc(/C=C/Cc3ccccc3)c(C(=O)O)n1)CC2
Result: Medium

Ask: Which class does N#CC1Cc2cc(OCCCc3sc(N4CCc5cccc(C(=O)Nc6nc7ccccc7s6)c5C4)nc3C(=O)O)ccc21 (stereo not shown) fall in?
Result: Low

Ask: Where would O=C(Nc1nc2ccccc2s1)c1cccc2c1CN(c1nc(C(=O)O)c(CCCOc3ccc(-n4ncc5cncnc54)cc3)s1)CC2 land among the classes by reported IC50?
Result: Low

Ask: Pick a category. Item: CC(C)(C)OC(=O)Nc1cccc(OCCCc2sc(N3CCc4cccc(C(=O)Nc5nc6ccccc6s5)c4C3)nc2C(=O)O)c1
Result: Medium

Ask: Could you tell me which band O=C(Nc1nc2ccccc2s1)c1cccc2c1CN(c1ccc(CCCc3ccccc3)c(C(=O)O)n1)CC2 belongs to?
Result: High

Ask: Category of N#C/C=C/c1cccc(OCCCc2sc(N3CCc4cccc(C(=O)Nc5nc6ccccc6s5)c4C3)nc2C(=O)O)c1 , please.
Result: Low

Ask: Band for N#Cc1c(-c2ccc(OCc3sc(N4CCc5cccc(C(=O)Nc6nc7ccccc7s6)c5C4)nc3C(=O)O)cc2)n[nH]c1N ?
Result: Medium

Ask: Band for the recorded IC50 of CN(C)CCOc1ccc(OCCCc2ccc(N3CCc4cccc(C(=O)Nc5nc6ccccc6s5)c4C3)nc2C(=O)O)cc1 ?
Result: Low

Ask: Class for N#Cc1cscc1-c1ccc(OCCCc2sc(N3CCc4cccc(C(=O)Nc5nc6ccccc6s5)c4C3)nc2C(=O)O)cc1 ?
Result: Medium

Ask: Which category does the recorded IC50 put O=C(Nc1nc2ccccc2s1)c1cccc2c1CN(c1nc(C(=O)O)c(CCOc3ccc(-n4ncc5cncnc54)cc3)s1)CC2 in?
Result: High

Ask: Hi there! Could you help me figure out the category for CN(C)CC#Cc1ccc(OCCCc2sc(N3CCc4cccc(C(=O)Nc5nc6ccccc6s5)c4C3)nc2C(=O)O)cc1F please?
Result: High

Ask: Place this molecule in its band: O=C(Nc1nc2ccccc2s1)c1cccc2c1CN(c1nc(C(=O)O)c(C#CCO)s1)CC2
Result: High

Ask: Form field 'band' for N#CC1(c2ccc(OCCCc3sc(N4CCc5cccc(C(=O)Nc6nc7ccccc7s6)c5C4)nc3C(=O)O)cc2)CCC1
Result: Medium

Ask: Classify this molecule: Cc1cc(N2CCN(c3nc4ccccc4s3)CC2)ccc1OCCCc1sc(N2CCc3cccc(C(=O)Nc4nc5ccccc5s4)c3C2)nc1C(=O)O
Result: High

Ask: Sort CN(C)CCOc1cnc(-c2ccc(OCCCc3ccc(N4CCc5cccc(C(=O)Nc6nc7ccccc7s6)c5C4)nc3C(=O)O)cc2)nc1 into one of the categories.
Result: Low

Ask: Assign a category based on measured IC50 for O=C(Nc1nc2ccccc2s1)c1cccc2c1CN(c1ccc(CCc3ccccc3)c(C(=O)O)n1)CC2 and give only the class name.
Result: High

Ask: Classify this molecule: O=C(Nc1nc2ccccc2s1)c1cccc2c1CN(c1nc(C(=O)O)c(CCCn3ccc4cccnc43)s1)CC2
Result: High

* * *

Test System: Bcl-xL (GST-Bcl-xL) (Homo sapiens)
Measurement Description: TR-FRET binding assay, competition with F-Bak for the Bcl-xL binding site
Test Context: values listed in the order of Table 1, read-out: TR-FRET assay results (Ki), Bcl-xL
Each record here notes measured Ki.
Use nM as the unit, but write only the number.

Here's what some known entries look like.
# Molecule, Test System, Unit Label, Ki
data = [
    ("CN(C)CCc1ccc(OCCCc2ccc(N3CCc4cccc(C(=O)Nc5nc6ccccc6s5)c4C3)nc2C(=O)O)cc1 [Example 102]", "Bcl-xL (GST-Bcl-xL) (Homo sapiens)", "nM", 2),
    ("N#Cc1c(-c2ccc(OCc3sc(N4CCc5cccc(C(=O)Nc6nc7ccccc7s6)c5C4)nc3C(=O)O)cc2)n[nH]c1N [Example 45]", "Bcl-xL (GST-Bcl-xL) (Homo sapiens)", "nM", 1),
]

Ask: For Bcl-xL (GST-Bcl-xL) (Homo sapiens), provide Ki of O=C(Nc1nc2ccccc2s1)c1cccc2c1CN(c1nc(C(=O)O)c(CN3CCC3c3ccccc3)s1)CC2 (stereo not shown) [Example 71] please.
Result: 174

Ask: Notebook entry, Bcl-xL (GST-Bcl-xL) (Homo sapiens) assay: Ki of N#Cc1cscc1-c1ccc(OCCCc2sc(N3CCc4cccc(C(=O)Nc5nc6ccccc6s5)c4C3)nc2C(=O)O)cc1 [Example 51] = ?
Result: 0.3
